- System: UO-31
- EXPERIMENTAL_DETAILS: NCI tumour cell line growth inhibition, 48 h
The source made the active and inactive calls. Cut-off read from the data, not from the text of the source: active = GI50 up to about 1.1 µM and inactive = higher. *1 amine or outer side, *2 acyl side, *3 side chain or, on linkers, in order; H or OH if unused. Where a SMILES comes first, the peptide text is derived from it. Bridges are numbered along the chain shown (N, C = ends). Roman numbers before positions name the chains, in order. [ ]: non-standard residue; d: D form. Actinocin(9to1) = Cc1c2oc3c(C)ccc(C(=O)[*:1])c3nc-2c(C(=O)[*:2])c(N)c1=O; NMeV = CN[CH](C(=O)O)C(C)C; Sar = CNCC(=O)O
Please reply with one of these outcomes: active, inactive

Q) Could you kindly confirm the outcome this assay logged for Cc1ccc(/C=C2\CCCC(C(NO)c3ccc(C)cc3)C2=NO)cc1 (stereo not drawn) ?
A) inactive

Q) For this compound, state the assay outcome: CCOC(=O)c1[nH]c(Br)c(-c2ccc(OC)c(OC)c2)c1Br
A) active

Q) Hi, sorry to bother you, what did the test record for Cc1ccccc1C1OC(=O)c2ccccc21 (stereo not drawn) ?
A) inactive

Q) What was the test verdict on O=C1CC=C2C3CC4N(CCC45c4ccccc4N1C25)C/C3=C\CO (stereo not drawn) ?
A) inactive

Q) Outcome logged for CN(C)P(=O)(/C(N)=N/Nc1ccc([N+](=O)[O-])cc1)N(C)C in this assay:
A) inactive

Q) Hi, sorry to bother you, what did the test record for CSc1c(CC(=O)Nc2ccc(Cl)cc2)n(Cc2ccccc2)c2ccccc12 ?
A) inactive

Q) Per the assay record, what outcome was assigned to CN(C)CCC(O)(c1ccccc1)C(O)(CCN(C)C)c1ccccc1 (stereo not drawn) ?
A) inactive

Q) Check the results log: what was the call for O=C(N/N=C/c1ccccc1)c1c(F)c(F)c(F)c(F)c1F ?
A) inactive

Q) Tell me the assay call for CCCCCCCSc1nc2c(C(=O)OCC)ncn2c2ccccc12 please.
A) inactive

Q) What call does the record list for COc1cc(/C=C2\C(=O)N(c3cccc(NC(C)=O)c3)C(c3ccccc3)S2(=O)=O)cc(OC)c1OC (stereo not drawn) ?
A) inactive

Q) // return assay outcome for NC(=O)C(=CNC(=S)Nc1ccc(Cl)c(Cl)c1)C(N)=O
A) inactive

Q) Returns: the outcome recorded for CC(=O)OCC1OC(n2c(C)c(C(C)=O)c(-c3cccc4ccccc34)c(C#N)c2=S)C(OC(C)=O)C(OC(C)=O)C1OC(C)=O (stereo not drawn) in this assay.
A) active

Q) // return assay outcome for N#CCCN(CCC#N)c1ccc(/C=C2\N=C(c3ccccc3)N(NC(=O)c3ccncc3)C2=O)cc1
A) inactive

Q) Check the results log: what was the call for Nc1ncc(Sc2ccccc2C(=O)O)s1 ?
A) inactive

Q) Field: outcome | Entry: O=C1c2ccccc2C(=O)C2C3c4ccccc4C(c4ccccc43)C12 (stereo not drawn)
A) inactive

Q) What is the recorded call for this compound in the test? C/C(=N\NS(=O)(=O)c1ccc(C)cc1)c1cc2ccccc2n1C
A) inactive

Q) Hello, I am checking results. What call was entered for Clc1ccc(Cc2nc3ccccc3o2)cc1 ?
A) inactive

Q) What outcome does the record of this test show for O=C(O)C/N=C(\C(=N\CC(=O)O)c1ccccc1)c1ccccc1 ?
A) inactive

Q) Each compound tested received a call. Report the one for Cc1ccc(S(=O)(=O)C(CC(NC=O)S(=O)(=O)c2ccc(C)cc2)NC=O)cc1 (stereo not drawn) .
A) inactive

Q) Outcome logged for O=C1C(=CNc2ccccc2Cl)C(=O)N(c2ccccc2)C(=O)N1c1ccccc1 in this assay:
A) inactive

Q) Hi, sorry to bother you, what did the test record for CCCCCC(O)[C@H]1C(=O)C[C@@H](O[Si](C)(C)C(C)(C)C)[C@@H]1/C=C/CCOCc1ccccc1 (stereo partly drawn) ?
A) inactive

Q) Record request — test call for CC1CN=C(N(C(=O)Nc2ccccc2)C2CCCCC2)S1 (stereo not drawn)
A) inactive

Q) # outcome recorded in this test, key = COc1c(O)ccc(/C=N/NC(=S)NCOCCOC(C)=O)c1OC
A) inactive

Q) Hi, do you know how Fc1cccc(F)c1C1SCc2nc3cc(Cl)c(Cl)cc3n21 (stereo not drawn) came out in this test?
A) inactive

Q) What outcome does the record of this test show for CCOC(=O)CCC(NC(=O)OCc1ccccc1)C(=O)NC(CCC(=O)OCC)C(=O)NC(CCC(=O)OCC)C(=O)NC(CCC(=O)OCC)C(=O)NC(CCC(=O)OCC)C(=O)OCC (stereo not drawn) ?
A) inactive

Q) State the result this test recorded for O=C1C=CC2(C=C1)O[C@H](COCc1ccccc1)[C@@H](COCc1ccccc1)O2 .
A) inactive

Q) Could you check what this test reported for CC(Cc1ccc(O)cc1)NCC(O)c1ccc(O)c(O)c1 (stereo not drawn) ?
A) inactive

Q) Please indicate how the test categorized CC(C)(C)OC(=O)NC(CCCCNC(=O)OCc1ccccc1)C(=O)NC(CCCCNC(=O)OCc1ccccc1)C(=O)ON1C(=O)CCC1=O (stereo not drawn) .
A) inactive

Q) Fill in: this test's call for CON(C)C(=O)C1CCCO1 (stereo not drawn) is ___
A) inactive

Q) Dear all, I need the recorded test outcome for CC(=O)NCCC1CN(C(=O)/C=C/I)c2ccccc21 (stereo not drawn) , thank you.
A) inactive

Q) Status in this test for C[C@@]12[C@H]3CC[C@@H]1[C@H](O)C(=O)N2CC3 ?
A) inactive

Q) Entry CC(=O)CC(=O)c1cc2c(=O)oc(C)cc2oc1=O : call = ?
A) inactive

Q) Lab log entry: O=C(NC(CCCCN1C(=O)c2ccccc2C1=O)P(=O)(Oc1ccccc1)Oc1ccccc1)OCc1ccccc1 (stereo not drawn) — outcome as called in the assay?
A) inactive

Q) I would be grateful if you could indicate the recorded call for COc1ccc(/C=C2\CCC(C)(CN(C)C)C2=O)cc1 (stereo not drawn) .
A) inactive

Q) Status in this test for CCn1ncc2c(=O)n3ncn(-c4ccc(Br)cc4)c3nc21 ?
A) inactive

Q) // param item: Cc1c2oc3c(C)ccc(C(=O)NC4C(=O)NC(C(C)C)C(=O)N5CCCC5C(=O)N(C)CC(=O)N(C)C(C(C)C)C(=O)OC4C)c3nc-2c(C(=O)NC2C(=O)NC(C(C)C)C(=O)N3CCCC3C(=O)N(C)CC(=O)N(C)C(C(C)C)C(=O)OC2C)c(N)c1=O (stereo not drawn) (I: TVP[Sar][NMeV] / II: TVP[Sar][NMeV]; ester I:1-I:C, II:1-II:C; linker I:N-II:N via Actinocin(9to1); configuration not given here) ; yields the recorded call
A) active

Q) Test call for this compound, please: O=C(/C=C1/Nc2ccc([N+](=O)[O-])cc2N/C1=C/C(=O)c1ccc(Cl)cc1)c1ccc(Cl)cc1
A) inactive

Q) Could you kindly confirm the outcome this assay logged for O=C(c1nc2ccc(Cl)cc2[nH]c1=O)C(O)c1cccc([N+](=O)[O-])c1 (stereo not drawn) ?
A) inactive
